# MEASUREMENT_DESCRIPTION: Biodistribution, SPECT/CT and micro-autoradiography of 125I-p5+14 in healthy wild type mice
# Assay type: in vivo, mouse (WT)
# RUN_PARAMETERS: mouse, in vivo, iv, 3 ug; healthy mice; 2 h pi; read-out: retention of radioactivity in any organ
Where no end group is shown, it is not given here. [ ]: non-standard residue; d: D form. Tyr(3-I) = N[C@@H](Cc1ccc(O)c(I)c1)C(=O)O
PROPERTY_MEASURED: tissue uptake at 2 h

* GGG[Tyr(3-I)]SKAQKAQAKQAKQAQKAQKAQAKQAKQAQKAQKAQAKQAKQ [125I-p5+14] | < 0.6 %ID/g
